This collection of values is drawn from patent US10526320B2.

Molecular target: PPAR Alpha (Homo sapiens)
Sequence (Q07869 whole entry): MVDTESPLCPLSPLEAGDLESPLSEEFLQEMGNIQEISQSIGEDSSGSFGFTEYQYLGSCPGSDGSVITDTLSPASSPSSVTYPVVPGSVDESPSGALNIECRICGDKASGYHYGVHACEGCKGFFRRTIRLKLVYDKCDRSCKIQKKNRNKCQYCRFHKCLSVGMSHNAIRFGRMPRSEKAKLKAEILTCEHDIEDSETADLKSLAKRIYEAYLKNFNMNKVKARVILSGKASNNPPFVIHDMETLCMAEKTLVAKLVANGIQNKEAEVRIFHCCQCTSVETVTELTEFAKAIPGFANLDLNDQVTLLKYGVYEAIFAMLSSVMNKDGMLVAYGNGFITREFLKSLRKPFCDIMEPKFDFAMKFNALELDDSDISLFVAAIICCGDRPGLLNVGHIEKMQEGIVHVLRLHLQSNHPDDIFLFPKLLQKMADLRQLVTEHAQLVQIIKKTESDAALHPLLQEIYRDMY
Test: PathHunter NHR protein interaction / nuclear translocation agonist test, PPAR Alpha
Assay type: cell-based
Details: read-out: PPAR Alpha Maximum Activation Response %
Kindly supply the reported Emax values for the records listed here.

# count of solved cases: 2
>  <Molecule>
Cc1cc(CCC2CN(C(=O)Oc3ccccc3)CC2C(=O)c2ccccc2)cc(C)c1OC(C)(C)C(=O)O (single isomer, unassigned) [Compound 62]

>  <Emax>
80 to 100%

$$$$
>  <Molecule>
Cc1cc(CCC2CN(C(=O)Oc3ccccc3)CC2C(=O)c2ccc(Cl)s2)cc(C)c1OC(C)(C)C(=O)O (single isomer, unassigned) [Compound 47]

>  <Emax>
80 to 100%

$$$$

We next turn to a different molecule, shown below.
Query :: I'd like to know its Emax. The molecule in question is CSc1ccc(C(=O)C2CN(C(=O)Oc3ccc(F)cc3)CC2c2cc(C)c(OC(C)(C)C(=O)O)c(C)c2)cc1 (single isomer, unassigned) [Compound 35]
Result :: 80 to 100%
